Reference for the values: ChEMBL document CHEMBL3861950

Target: Tyrosine-protein phosphatase non-receptor type 11 (Homo sapiens, UniProt Q06124)
Sequence (Q06124 whole entry): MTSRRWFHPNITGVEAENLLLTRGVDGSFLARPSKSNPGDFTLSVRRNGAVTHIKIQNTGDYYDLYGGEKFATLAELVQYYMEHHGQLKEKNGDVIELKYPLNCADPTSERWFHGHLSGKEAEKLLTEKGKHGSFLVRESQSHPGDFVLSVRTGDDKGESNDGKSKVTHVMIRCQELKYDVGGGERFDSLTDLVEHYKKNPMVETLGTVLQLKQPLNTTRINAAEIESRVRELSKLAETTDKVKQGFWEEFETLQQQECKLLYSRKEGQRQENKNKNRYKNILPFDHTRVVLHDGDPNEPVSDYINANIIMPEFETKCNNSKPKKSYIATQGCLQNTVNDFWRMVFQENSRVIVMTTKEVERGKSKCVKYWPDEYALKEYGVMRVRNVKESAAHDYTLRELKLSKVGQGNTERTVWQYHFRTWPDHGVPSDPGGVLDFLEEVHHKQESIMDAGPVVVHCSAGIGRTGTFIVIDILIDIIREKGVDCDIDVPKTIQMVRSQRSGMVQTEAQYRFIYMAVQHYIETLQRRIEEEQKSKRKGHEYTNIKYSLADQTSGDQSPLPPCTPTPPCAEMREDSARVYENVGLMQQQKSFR
Test: Inhibition of recombinant SHP2 (unknown origin) using pNPP as substrate by spectrophotometric method
pIC50: −log10 of the molar value.
The compounds listed here are annotated with their pIC50.
Recorded Endpoint: pIC50

1. O=C(COc1ccc2cc(C(O)(C(F)(F)F)C(F)(F)F)c(O)cc2c1)NCc1ccc(F)cc1: < 4.70
2. O=C(COc1ccc2cc(C(O)(C(F)(F)F)C(F)(F)F)c(O)cc2c1)Nc1cccc2ccccc12: < 4.70
3. Oc1cc(-c2ccccc2)ccc1C(O)(C(F)(F)F)C(F)(F)F: < 3.30
4. OC(c1ccccc1)(C(F)(F)F)C(F)(F)F: < 3.30
5. Oc1c(C(O)(C(F)(F)F)C(F)(F)F)ccc2ccccc12: < 3.30
6. COc1ccc(CNC(=O)COc2ccc3cc(C(O)(C(F)(F)F)C(F)(F)F)c(O)cc3c2)cc1OC: < 4.70
